Hi there, I'd appreciate the recorded IC50 for every entry that follows.
# system.name: Neutrophil elastase (Homo sapiens, UniProt P08246)
# Sequence (P08246 whole entry): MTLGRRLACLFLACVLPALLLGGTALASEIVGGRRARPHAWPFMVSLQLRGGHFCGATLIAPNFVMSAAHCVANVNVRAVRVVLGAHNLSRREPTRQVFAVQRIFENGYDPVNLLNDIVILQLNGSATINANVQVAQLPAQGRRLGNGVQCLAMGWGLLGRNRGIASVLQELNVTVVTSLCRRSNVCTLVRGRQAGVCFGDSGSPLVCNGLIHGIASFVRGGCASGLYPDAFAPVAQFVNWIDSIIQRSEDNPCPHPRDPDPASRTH
# assay.overview: In vitro inhibitory activity against human leukocyte elastase (HLE)
Please reply with the bare figure in µM and do not write the unit itself.

Recorded result, COc1ccc2c(c1)CCC=C2c1nc2ccccc2c(=O)o1 , IC50: 0.61

Value of IC50 reported for the molecule O=c1oc(-c2ccccc2)nc2ccccc12 is 17

The molecule listed as O=c1oc(/C2=C/CCCCCC2)nc2ccccc12 shows IC50 equal to 7

Recorded IC50 (molecule O=c1oc(-c2ccco2)nc2ccccc12 ): 5.5
